Target: PIK3CA (human), P42336 [H1047R]
Sequence (P42336 whole entry H1047R, looked up): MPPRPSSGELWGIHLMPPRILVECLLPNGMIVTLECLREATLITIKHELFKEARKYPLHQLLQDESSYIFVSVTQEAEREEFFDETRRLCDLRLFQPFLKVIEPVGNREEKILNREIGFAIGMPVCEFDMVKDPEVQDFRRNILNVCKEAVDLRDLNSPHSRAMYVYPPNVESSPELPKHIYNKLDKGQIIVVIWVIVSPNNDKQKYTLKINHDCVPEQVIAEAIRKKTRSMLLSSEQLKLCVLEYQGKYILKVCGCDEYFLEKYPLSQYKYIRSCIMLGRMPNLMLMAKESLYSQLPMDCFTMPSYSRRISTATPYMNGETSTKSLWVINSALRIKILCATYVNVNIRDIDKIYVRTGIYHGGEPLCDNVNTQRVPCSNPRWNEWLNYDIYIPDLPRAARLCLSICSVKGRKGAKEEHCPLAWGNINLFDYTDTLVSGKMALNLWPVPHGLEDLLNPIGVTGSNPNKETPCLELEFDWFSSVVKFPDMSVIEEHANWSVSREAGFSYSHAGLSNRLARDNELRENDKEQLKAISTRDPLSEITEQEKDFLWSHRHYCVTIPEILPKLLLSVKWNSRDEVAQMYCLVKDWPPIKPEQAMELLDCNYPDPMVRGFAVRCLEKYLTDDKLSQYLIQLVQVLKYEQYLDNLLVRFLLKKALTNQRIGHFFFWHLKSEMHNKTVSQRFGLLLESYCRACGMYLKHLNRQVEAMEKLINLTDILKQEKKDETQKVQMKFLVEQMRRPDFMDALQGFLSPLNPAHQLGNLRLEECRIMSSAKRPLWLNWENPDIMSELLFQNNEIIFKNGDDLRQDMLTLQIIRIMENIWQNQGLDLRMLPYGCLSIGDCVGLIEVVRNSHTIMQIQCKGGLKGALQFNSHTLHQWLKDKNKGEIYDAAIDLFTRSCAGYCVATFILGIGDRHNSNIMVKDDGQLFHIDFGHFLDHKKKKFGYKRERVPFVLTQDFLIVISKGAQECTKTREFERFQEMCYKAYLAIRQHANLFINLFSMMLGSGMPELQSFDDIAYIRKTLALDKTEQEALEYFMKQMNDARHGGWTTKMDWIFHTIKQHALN
Assay: Assessment of PIK3CA(H1047R) Kinase Activity
pIC50: −log10 of the molar value.
Property: pIC50

Some compounds with recorded pIC50:
[[record]]
record_smiles = "CN(C)C(=O)c1ccc(NC(=O)Nc2ccc(-c3nc(N4CCOCC4)c4ccc(-c5cccnc5F)cc4n3)cn2)cc1"
measured_result = "> 7.30"

[[record]]
record_smiles = "CN(C)C(=O)c1ccc(NC(=O)Nc2ccc(-c3nc(N4CCOCC4)c4cc(F)c(-c5cnn(C)c5)cc4n3)cn2)cc1"
measured_result = "> 7.30"

[[record]]
record_smiles = "CN(C)C(=O)c1ccc(NC(=O)Nc2ccc(-c3nc(N4CCOCC4)c4ccc(-c5cccc(S(C)(=O)=O)c5)cc4n3)cn2)cc1"
measured_result = "> 7.30"

[[record]]
record_smiles = "CN(C)C(=O)c1ccc(NC(=O)Nc2ccc(-c3nc(N4CCOCC4)c4ccc(-c5cccnc5)cc4n3)cc2)c(F)c1"
measured_result = "6.30 to 7.30"

[[record]]
record_smiles = "CN(C)C(=O)c1ccc(NC(=O)Nc2ccc(-c3nc(N4CCOCC4)c4ccc(-c5ccco5)cc4n3)cc2)cc1"
measured_result = "> 7.30"


Consider the compound CN(C)C(=O)c1ccc(NC(=O)Nc2ccc(-c3nc(N4CCOCC4)c4ccc(-c5cncnc5)cc4n3)cc2)cc1 and give its recorded pIC50.
> 7.30

Consider the compound Cc1ccc(-c2ccc3c(N4CCOCC4)nc(-c4ccc(NC(=O)Nc5ccc(C(=O)N(C)C)cc5)cc4)nc3c2)o1 and give its recorded pIC50.
> 7.30
